target: UniProt:P51449; assay: Agonist activity at APC-labeled RORgammat-LBD (unknown origin) assessed as induction of europium-labeled SRC1 recruitment after 1 hr by dual FRET analysis
Sequence (P51449 whole entry, the tested form may be a part): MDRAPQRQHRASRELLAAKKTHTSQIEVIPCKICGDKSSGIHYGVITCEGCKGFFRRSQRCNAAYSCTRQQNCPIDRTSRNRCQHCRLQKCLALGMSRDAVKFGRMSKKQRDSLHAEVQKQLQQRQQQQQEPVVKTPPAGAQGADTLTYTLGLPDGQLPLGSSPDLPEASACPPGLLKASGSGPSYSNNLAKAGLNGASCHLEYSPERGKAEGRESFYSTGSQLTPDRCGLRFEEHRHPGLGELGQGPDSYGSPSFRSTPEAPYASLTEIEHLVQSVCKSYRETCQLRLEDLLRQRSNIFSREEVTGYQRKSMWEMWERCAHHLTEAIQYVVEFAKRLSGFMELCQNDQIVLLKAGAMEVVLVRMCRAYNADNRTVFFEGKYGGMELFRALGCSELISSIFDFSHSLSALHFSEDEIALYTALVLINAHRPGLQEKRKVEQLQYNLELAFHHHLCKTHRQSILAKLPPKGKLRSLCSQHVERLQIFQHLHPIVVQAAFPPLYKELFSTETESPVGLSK
Measured attribute: EC50 (µM)
// units = µM; emit number, no label

Please give the measured EC50 for this molecule: `CCS(=O)(=O)c1ccc(CC(=O)Nc2nc(-c3cc(Cl)ccc3Cl)c(-c3ccccc3)s2)cc1`
3.16
